B1: EPB41L3 (parent)
chain: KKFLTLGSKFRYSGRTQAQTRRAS

Variants of: B1
experiment notes: protein stability index of a GFP-peptide fusion (GPS, HEK-293T) (PSI 1-6); higher = more stable;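 further: lentivirally expressed fusions sorted by FACS into six bins by GFP to DsRed ratio, PSI derived from sequencing read proportions per bin multiplied by bin number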
test parameters: c terminus: a fixed tail appended
reported metric: protein stability index

Example cases with answers are listed next.
KKFLTLGSKFRYSGRTQAYTRRAS [Q19Y]	2.22
KKFLTLGGKFRYSGRTQAQTRRAS [S8G]	2.81
KKFLTLGSKFRYSGREQAQTRRAS [T16E]	3.38
KKFLTLGSTFRYSGRTQAQTRRAS [K9T]	2.13
KTFLTLGSKFRYSGRTQAQTRRAS [K2T]	2.44

Tell me the measured protein stability index of KKFLTLGHKFRYSGRTQAQTRRAS [S8H] , please. 3.01

Tell me the measured protein stability index of KKFHTLGSKFRYSGRTQAQTRRAS [L4H] , please. 3.44
